molecular target: HIV Env of isolate 62357_14_D3_4589 (clade B) (HIV); test: cell-based or functional assay
assay.metric: IC50 (µg/ml) with constrains

[[record]]
binder = "ePGDM9 (antibody, V domains shown) VH: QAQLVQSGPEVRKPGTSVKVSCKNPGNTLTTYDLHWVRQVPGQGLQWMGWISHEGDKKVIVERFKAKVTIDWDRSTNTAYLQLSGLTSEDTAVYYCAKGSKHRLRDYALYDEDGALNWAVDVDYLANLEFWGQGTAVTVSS VL: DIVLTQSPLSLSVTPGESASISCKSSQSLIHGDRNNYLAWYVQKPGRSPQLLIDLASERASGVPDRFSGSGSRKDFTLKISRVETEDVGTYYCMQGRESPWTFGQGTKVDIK"
result = "9.51 µg/mL"

